B1: TRIM55 (parent)
chain: FQASNPYLPTRGGTTMASGGRFRC

- Variants of: B1
- experiment: protein stability index of a GFP-peptide fusion (GPS, HEK-293T) (PSI 1-6); higher = more stable;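 note: lentivirally expressed fusions sorted by FACS into six bins by GFP to DsRed ratio, PSI derived from sequencing read proportions per bin multiplied by bin number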
- measurement_parameters: c terminus: a fixed tail appended
outcome_measure: protein stability index
// response body must contain only the number

// protein stability index lookup, variant = Y7E , result: 3.2

The reported protein stability index of the variant F1D was 3.43

Entry N5V ; protein stability index = 2.1

Sample G19H ; protein stability index observed: 2.48

Summary for this variant, A17Y : protein stability index is 2.11

The reported value for T14M in terms of protein stability index is 2.32

Recorded protein stability index (variant T14V ): 1.54

Per the records, this variant ( T10L ) has protein stability index equal to 2.4

The variant identified as G19E registered its protein stability index at 1.71

Quick note, protein stability index for C24W landed at 1.94

// protein stability index value for G12S : 2.61

Short answer for T14G : protein stability index was 1.67

protein stability index reading for C24F : 2.23

Per the record, N5I has protein stability index of 2.51

Per the records, this variant ( G19T ) has protein stability index equal to 2.28

Lab book: protein stability index of A17E noted as 2.52

For F22V the variant record lists protein stability index as 1.38

// protein stability index value for G19C : 2.9

protein stability index recorded for this variant, G19N , is 1.77

get_value(item= S4A , readout=protein stability index) returns 2.11

Lab note: measured protein stability index of A17C was 2.24

Short answer for L8A : protein stability index was 1.81

Reference for the values: the supplement of paper PMC10567573
